Molecular target: T1, IL-11 protein (UniProt P20809 22-199, limits assumed)
T1 construct: also called IL-11 antigen
T1 sequence (looked up): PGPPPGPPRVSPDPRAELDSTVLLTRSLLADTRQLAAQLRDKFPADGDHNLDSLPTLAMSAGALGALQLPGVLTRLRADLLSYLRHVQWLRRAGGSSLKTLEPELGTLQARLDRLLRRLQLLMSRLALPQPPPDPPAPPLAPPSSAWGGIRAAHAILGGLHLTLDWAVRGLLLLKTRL
Experiment: flow competition: IL-11 + antibody on IL-11R cells; lower = more blocking; also: test concentration or dose not given here
MEASUREMENT_NAME: FITC Mean
I only need the number, thanks.

See these solved cases before continuing.
>  <BINDER>
3-7C9-1A6 (antibody, human IgG1, kappa, V domains shown) VH: QVQLKQSGPGLVQPSQSLSITCTVSGFSLTNYGVHWVRQSPGKGLEWLGAIWRGGSTDYNAAFMSRLSITKDNSKSQVFFKMNSLQPDDTAIYYCAKNLYGPAAMDYWGQGTSVTVSS VL: DIQMNQSPSSLSASLGDTITITCHANQNIYVWLSWYQQKPGNIPKLLIYEASNLHTGVPSRFSGSGSGTGFTLTISSLQPEDIATYYCQQGQSYPYTFGGGTKLEIKR

>  <RECORDED_VALUE>
3150

$$$$
>  <BINDER>
3-6A4 (antibody, human IgG1, kappa, V domains shown, also called 3-6A4 antibody; 3-6A4 mAb) VH: QIQLVQSGPELKKPGETVKISCKASGYTFTTNGINWVKQAAGKGLKWMGWINTNTGEPTNAEELKGRFAFSLETSASTAYLQINNLKNEDAAIYFCAREGAFGLDYWGQGTSVTVSS VL: SIVMTQSPKFLLVSAGDRVIITCKASQSVSNDVVWYQQKPGQSPKLLIYYGSHRNTGVPTRFTGSGYGTDFTFTISTVQAEDLAVYFCQQDFFSPWTFGGGTKLEIKR

>  <RECORDED_VALUE>
3040

$$$$

# evaluate next
Lab note: 3-15D5-6A1 (antibody, human IgG1, kappa, V domains shown) VH: EVKLLESGGGLVQPGGSLKLSCAASGFDFRRYWMSWVRQAPGKGLEWIGQINPDSSMINYTPSLKDKFIISRDNAKNTLYLQMSEVRSEDTALYYCATYGHHATDSWGQGTSVTVSS VL: DIVLTQSPASLAVSLGQRATISCRASESVDSYGNSFMHWYQQKPGQPPKLLIYRASNLESGIPARFSGSGSRTDFTLTINPVEADDVATYYCQQSNEDPFTFGSGTKLEIKR gave FITC Mean of 13600
